# systemName: T1, O8
# T1 chain: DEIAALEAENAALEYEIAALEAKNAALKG
# assayProtocol: two-hybrid library CCNG1;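 also: natural log of median RNA to DNA barcode read ratio; higher means stronger binding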
# key: entry, value: interaction score

binder	interaction score
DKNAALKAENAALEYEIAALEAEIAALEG [O1]	-2.46
DKNAALKAKIAALKYENAALEAKIAALKG [O6]	-1.47
DEIAALEAKIAALKYENAALEAENAALEG [O3]	-2.29
DEIAALEAENAALEYKIAALKAENAALEG [O15]	-1.73
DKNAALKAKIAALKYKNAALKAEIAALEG [O13]	-1.26
DEIAALEAENAALEYEIAALEAKNAALKG [O8]	-2.07
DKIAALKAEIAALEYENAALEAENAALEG [O11]	-2.51
